system name: HCV NS5B RdRp genotype 1b (Hepatitis C virus genotype 1b, UniProt Q9WMX2)
Construct: The protein was expressed with an 18 amino acid C-terminal truncation to enhance the solubility; made in house; host or cells: E. coli BL21(DE3), pET21a vector
Sequence (Q9WMX2 2420-2992): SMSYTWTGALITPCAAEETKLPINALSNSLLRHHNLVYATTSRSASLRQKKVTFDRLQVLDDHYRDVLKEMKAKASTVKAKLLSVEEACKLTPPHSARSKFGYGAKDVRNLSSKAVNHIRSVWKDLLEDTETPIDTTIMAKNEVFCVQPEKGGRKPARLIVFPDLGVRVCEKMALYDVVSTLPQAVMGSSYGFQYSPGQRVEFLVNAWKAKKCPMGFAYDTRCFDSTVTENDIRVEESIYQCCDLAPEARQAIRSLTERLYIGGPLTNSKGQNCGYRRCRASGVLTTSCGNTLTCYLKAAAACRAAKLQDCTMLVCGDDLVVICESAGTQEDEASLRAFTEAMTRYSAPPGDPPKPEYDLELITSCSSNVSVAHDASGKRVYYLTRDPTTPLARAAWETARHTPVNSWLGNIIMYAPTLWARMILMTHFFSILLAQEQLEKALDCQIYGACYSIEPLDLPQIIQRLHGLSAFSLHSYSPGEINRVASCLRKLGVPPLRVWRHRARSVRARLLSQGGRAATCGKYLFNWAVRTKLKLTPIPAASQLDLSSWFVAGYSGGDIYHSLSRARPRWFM
assay overview: HCV NS5B RdRp enzyme assay (standard / modified)
Assay type: biochemical
pIC50: −log10 of the molar value.
// values below are reported pIC50

compound: COc1ccc2c(c1)[C@@H]1CC1(C(=O)N1C3CCC1CN(C)C3)Cn1c-2c(C2CCCCC2)c2ccc(C(=O)NS(=O)(=O)C3CCC3)cc21 (stereo partly shown)
pIC50: 6.30 to 9.00
--
compound: COc1ccc2c(c1)C1CC1(C(=O)N1C3CCC1CN(C)C3)Cn1c-2c(C2CCCCC2)c2ccc(C(=O)NS(=O)(=O)N3CCC3)cc21 (stereo not shown) [drawing 101]
pIC50: 6.30 to 9.00
--
compound: CCN(CC)C(=O)N1CC2CCC(C1)N2C(=O)C12CC1c1cc(OC)ccc1-c1c(C3CCCCC3)c3ccc(C(=O)NS(=O)(=O)C4CC4)cc3n1C2 (stereo not shown) [drawing 92]
pIC50: 6.30 to 9.00
--
compound: COc1ccc2c(c1)C1CC1(C(=O)N1C3CCC1CN(C)C3)Cn1c-2c(C2CCCCC2)c2ccc(C(=O)NS(=O)(=O)C(F)(F)F)cc21 (stereo not shown)
pIC50: 6.30 to 9.00
--
compound: COc1ccc2c(c1)C1CC1(C(=O)N1[C@@H]3CC[C@H]1CN(S(C)(=O)=O)C3)Cn1c-2c(C2CCCCC2)c2ccc(C(=O)NS(=O)(=O)N(C)C)cc21 (stereo partly shown)
pIC50: 6.30 to 9.00
--
compound: COc1ccc2c(c1)C1CC1(C(=O)N1CC3CCC(C1)N3C)Cn1c-2c(C2CCCCC2)c2ccc(C(=O)NS(=O)(=O)N(C)C)cc21 (stereo not shown)
pIC50: 6.30 to 9.00
--
compound: CCC(C)S(=O)(=O)NC(=O)c1ccc2c(C3CCCCC3)c3n(c2c1)C[C@@]1(C(=O)N2C4CCC2CN(C)C4)C[C@H]1c1cc(OC)ccc1-3 (stereo partly shown) [drawing 132]
pIC50: 6.30 to 9.00
--
compound: COc1ccc2c(c1)C1CC1C(C(=O)N1C3CCC1CN(C)C3)n1c-2c(C2CCCCC2)c2ccc(C(=O)NS(=O)(=O)C3CC3)cc21 (stereo not shown) [drawing 100]
pIC50: 6.30 to 9.00
--
compound: COc1ccc2c(c1)C1CC1(C(=O)N1C3CCC1CN(C)C3)Cn1c-2c(C2CCCCC2)c2ccc(C(=O)NS(=O)(=O)C3CC3)cc21 (stereo not shown)
pIC50: 6.30 to 9.00
--
compound: CN1CC2CCC(C1)N2C(=O)C1=Cc2c(OC(F)(F)F)cccc2-c2c(C3CCCCC3)c3ccc(C(=O)NS(=O)(=O)N(C)C)cc3n2C1
pIC50: < 6.30
--
compound: COc1ccc2c(c1)[C@@H]1CC1[C@@H](C(=O)N1C3CCC1CN(C)C3)n1c-2c(C2CCCCC2)c2ccc(C(=O)N(C)S(=O)(=O)N(C)C)cc21 (stereo partly shown)
pIC50: < 6.30
--
compound: COc1ccc2c(c1)C1CC1(C(=O)N1C3CCC1CN(C)C3)Cn1c-2c(C2CCCCC2)c2ccc(C(=O)NS(=O)(=O)N3CCCCC3)cc21 (stereo not shown) [drawing 95]
pIC50: 6.30 to 9.00
--
compound: COc1cccc2c1C1CC1(C(=O)N1C3CCC1CN(C)C3)Cn1c-2c(C2CCCCC2)c2ccc(C(=O)NS(=O)(=O)N(C)C)cc21 (stereo not shown)
pIC50: 6.30 to 9.00

Data origin: patent US20130171098A1
